- Tested on: mKate-E0771 cells
- METHOD_DESCRIPTION: MTT cell viability assay
- Type: cell-based, mouse
- CONDITION_SUMMARY: H5 6.3 (head prints mM), 1 h, 37 °C; Data 4
Where no end group is shown, it is not given here.
PARAMETER_MEASURED: Cell viability (MTT), normalized to untreated cells (%)
Response body: numeric value in %, unit text excluded.

Problem: Any idea what its Cell viability (MTT), normalized to untreated cells is? The substance is IEPDAL [H5, FRET hexapeptide IEPDAL with BODIPY-FL fluorophore at the N-terminal end and Dabcyl quencher]
Result: 95

* * *

- System: mKate-E0771 cells
- METHOD_DESCRIPTION: MTT cell viability assay
- Assay type: cell-based, mouse
- CONDITION_SUMMARY: H5 25 (head prints mM), 1 h, 37 °C; Data 5
Where no end group is shown, it is not given here.
PARAMETER_MEASURED: Cell viability (MTT), normalized to untreated cells (%)
Response body: numeric value in %, unit text excluded.

Problem: Any idea what its Cell viability (MTT), normalized to untreated cells is? The substance is IEPDAL [H5, FRET hexapeptide IEPDAL with BODIPY-FL fluorophore at the N-terminal end and Dabcyl quencher]
Result: 81

* * *

- Test system: mKate-E0771 cells
- METHOD_DESCRIPTION: MTT cell viability assay
- Assay type: cell-based, mouse
- CONDITION_SUMMARY: H5 6.3 (head prints mM), 1 h, 37 °C; Data 3
Where no end group is shown, it is not given here.
PARAMETER_MEASURED: Cell viability (MTT), normalized to untreated cells (%)
Response body: numeric value in %, unit text excluded.

Problem: Any idea what its Cell viability (MTT), normalized to untreated cells is? The substance is IEPDAL [H5, FRET hexapeptide IEPDAL with BODIPY-FL fluorophore at the N-terminal end and Dabcyl quencher]
Result: 97

* * *

- Test system: mKate-E0771 cells
- METHOD_DESCRIPTION: MTT cell viability assay
- Assay type: cell-based, mouse
- CONDITION_SUMMARY: H5 12.5 (head prints mM), 1 h, 37 °C; Data 5
Where no end group is shown, it is not given here.
PARAMETER_MEASURED: Cell viability (MTT), normalized to untreated cells

Problem: Any idea what its Cell viability (MTT), normalized to untreated cells is? The substance is IEPDAL [H5, FRET hexapeptide IEPDAL with BODIPY-FL fluorophore at the N-terminal end and Dabcyl quencher]
Result: 84%

* * *

- Tested on: mKate-E0771 cells
- METHOD_DESCRIPTION: MTT cell viability assay
- Format: cell-based, mouse
- CONDITION_SUMMARY: H5 25 (head prints mM), 1 h, 37 °C; Data 6
Where no end group is shown, it is not given here.
PARAMETER_MEASURED: Cell viability (MTT), normalized to untreated cells (%)
Response body: numeric value in %, unit text excluded.

Problem: Any idea what its Cell viability (MTT), normalized to untreated cells is? The substance is IEPDAL [H5, FRET hexapeptide IEPDAL with BODIPY-FL fluorophore at the N-terminal end and Dabcyl quencher]
Result: 81

* * *

- Tested on: mKate-E0771 cells
- METHOD_DESCRIPTION: MTT cell viability assay
- Format: cell-based, mouse
- CONDITION_SUMMARY: H5 12.5 (head prints mM), 1 h, 37 °C; Data 4
Where no end group is shown, it is not given here.
PARAMETER_MEASURED: Cell viability (MTT), normalized to untreated cells (%)
Response body: numeric value in %, unit text excluded.

Problem: Any idea what its Cell viability (MTT), normalized to untreated cells is? The substance is IEPDAL [H5, FRET hexapeptide IEPDAL with BODIPY-FL fluorophore at the N-terminal end and Dabcyl quencher]
Result: 96

Values compiled from paper PMC9061857.
